# MEASURED TARGET: human Cyp11B2, aldosterone synthase (Homo sapiens, UniProt P19099)
# Construct: the full-length cDNAs for the proteins were subcloned into the multicloning site of pcDNA3.1 (zeo); expressed in transfected cells
# Sequence (P19099 25-503): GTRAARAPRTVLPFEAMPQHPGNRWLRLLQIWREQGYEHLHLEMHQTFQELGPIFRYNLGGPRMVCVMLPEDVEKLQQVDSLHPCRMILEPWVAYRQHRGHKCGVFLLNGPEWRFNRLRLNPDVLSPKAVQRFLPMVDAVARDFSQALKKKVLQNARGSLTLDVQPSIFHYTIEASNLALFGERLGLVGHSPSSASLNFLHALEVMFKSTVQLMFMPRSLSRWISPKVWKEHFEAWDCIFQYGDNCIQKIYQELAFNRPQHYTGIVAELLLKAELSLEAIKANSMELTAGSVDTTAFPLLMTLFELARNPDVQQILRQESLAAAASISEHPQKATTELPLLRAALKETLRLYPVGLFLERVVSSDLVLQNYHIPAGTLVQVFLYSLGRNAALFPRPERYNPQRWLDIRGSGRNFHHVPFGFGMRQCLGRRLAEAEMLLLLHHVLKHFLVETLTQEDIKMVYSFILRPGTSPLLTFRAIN
# ASSAY: Cyp11B2 (aldosterone synthase) inhibition in stably transfected Y1-Cyp11B2 cells, substrate 11-deoxycorticosterone (DOC)
# Type: cell-based
# STATED CONDITIONS: Y1-Cyp11B2 cells, 1 μM DOC, 48 h incubation; read-out: IC50 aldosterone synthase
MEASUREMENT KIND: IC50 (nM)
Express the result in nM but write the number alone.

Worked cases, IC50 given:
| SMILES CODE | IC50 (nM) |
| --- | --- |
| C[C@H](c1ccc(I)cc1)n1cncc1C(=O)N1CCOCC1 | 182 |
| Cc1nnc(-c2cncn2[C@H](C)c2ccc(I)cc2)o1 | 90.1 |

I am curious: what IC50 value has been reported for `C[C@H](c1ccc(I)cc1)n1cncc1C(=O)N1CCCCC1` ? 5.5
